All figures here come from patent US20250152585A1.

The following compounds are shown together with reported pKd values.
Target: N-terminally FLAG-tagged PARP2 (amino acids 1-583) (Homo sapiens, UniProt Q9UGN5)
Construct: N-terminally FLAG-tagged PARP2 (amino acids 1-583)
Sequence (Q9UGN5 whole entry, the tested form may be a part): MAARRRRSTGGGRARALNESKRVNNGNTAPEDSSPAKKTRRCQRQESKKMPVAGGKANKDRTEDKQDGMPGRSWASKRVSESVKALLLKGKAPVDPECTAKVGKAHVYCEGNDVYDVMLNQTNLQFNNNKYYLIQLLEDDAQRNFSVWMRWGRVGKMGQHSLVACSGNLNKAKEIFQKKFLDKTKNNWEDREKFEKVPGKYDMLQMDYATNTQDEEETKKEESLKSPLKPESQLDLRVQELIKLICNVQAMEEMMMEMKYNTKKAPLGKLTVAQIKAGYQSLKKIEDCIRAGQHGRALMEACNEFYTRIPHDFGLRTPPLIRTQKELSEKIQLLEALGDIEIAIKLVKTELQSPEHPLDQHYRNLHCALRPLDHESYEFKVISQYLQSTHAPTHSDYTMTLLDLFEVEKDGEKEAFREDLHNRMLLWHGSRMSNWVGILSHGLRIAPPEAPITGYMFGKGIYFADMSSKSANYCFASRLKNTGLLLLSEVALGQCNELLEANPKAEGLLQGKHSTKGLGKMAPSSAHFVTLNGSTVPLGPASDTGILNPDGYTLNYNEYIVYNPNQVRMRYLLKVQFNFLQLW
Assay: PARP2 probe displacement HTRF assay
Assay type: binding
Details: binned Kd, PARP2 probe displacement HTRF
pKd: −log10 of the molar value.
readoutLabel: pKd

• CNC(=O)c1ccc(N2CCC(N3CCC(c4cc5cccc(F)c5c(=O)[nH]4)C3)CC2)cn1 (single isomer, unassigned) [Compound 136a] = 6.00 to 7.00
• CNC(=O)c1ccc(N2CCC(N3CCCC(c4ncc(CC(F)(F)F)c(=O)[nH]4)C3)CC2)cn1 (single isomer, unassigned) [Compound 212a] = < 5.00
• O=c1[nH]c(C2CCN(C3CCN(c4ccc(Cl)cc4)CC3)C2)nc2ccccc12 (single isomer, unassigned) [Compound 43b] = 6.00 to 7.00
• CNC(=O)c1ccc(N2CCC(N3CCC(c4ccc(CC5CC5)c(=O)[nH]4)C3)CC2)cn1 (single isomer, unassigned) [Compound 213a] = < 5.00
• CNC(=O)c1cnc(N2CCC(N3CCCC(c4nc5ccccc5c(=O)[nH]4)C3)CC2)cn1 (single isomer, unassigned) [Compound 99b] = 6.00 to 7.00
• CNC(=O)c1ccc(N2CCC(N3CCC(c4cc5ccc(F)cc5c(=O)[nH]4)C3)CC2)c(F)n1 (single isomer, unassigned) [Compound 174b] = 7.00 to 8.00
• CCNC(=O)c1ccc(N2CCC(N3CCCC(c4nc5ccccc5c(=O)[nH]4)C3)CC2)cn1 (single isomer, unassigned) [Compound 122b] = 5.00 to 6.00
• CNC(=O)c1ccc(N2CCC(N3CCC(c4nc5c(c(=O)[nH]4)CCCN5C)C3)CC2)cn1 (single isomer, unassigned) [Compound 208a] = 6.00 to 7.00
• CNC(=O)c1ccc(N2CCC(N3CCC(c4cc5ccc(F)cc5c(=O)[nH]4)C3)CC2)c(F)n1 (racemic) [Compound 174rac] = 6.00 to 7.00
• CNC(=O)c1ccc(N2CCC(N3CCC(O)(c4nc5ccccc5c(=O)[nH]4)C3)CC2)cn1 (single isomer, unassigned) [Compound 140a] = < 5.00
• CNC(=O)c1cc(C)c(N2CCC(N3CCC(c4cc5ccccc5c(=O)[nH]4)C3)CC2)c(C)n1 (single isomer, unassigned) [Compound 205b] = 5.00 to 6.00
• CNC(=O)c1ccc(N2CCC(N3CCC(c4nc5cccnc5c(=O)[nH]4)C3)CC2)cn1 (single isomer, unassigned) [Compound 77a] = < 5.00
• CNC(=O)c1ccc(N2CCC(N3CCC(c4cc5cnccc5c(=O)[nH]4)C3)CC2)cn1 (racemic) [Compound 204rac] = < 5.00
• CNC(=O)c1ccc(N2CCC(N3CCC(c4nc5onc(C)c5c(=O)[nH]4)C3)CC2)cn1 (single isomer, unassigned) [Compound 149a] = < 5.00
• NC(=O)c1ccc(N2CCC(N3CCCC(c4nc5ccccc5c(=O)[nH]4)C3)CC2)cn1 (single isomer, unassigned) [Compound 109a] = < 5.00
• CNC(=O)c1ccc(N2CCC(N3CCC(c4cc5ncccc5c(=O)[nH]4)C3)CC2)cn1 (single isomer, unassigned) [Compound 218b] = 6.00 to 7.00
• CNC(=O)c1ccc(N2CCC(N3CCCC(c4ccc(C5CC5)c(=O)[nH]4)C3)CC2)cn1 (single isomer, unassigned) [Compound 126a] = 5.00 to 6.00
• CNC(=O)c1ccc(N2CCC(N3CCC(c4nc5ccc(Cl)cc5c(=O)[nH]4)C3)CC2)cn1 (racemic) [Compound 49rac] = 6.00 to 7.00
• CNC(=O)c1ccc(N2CCC(N3CCC(c4cc5cccc(F)c5c(=O)[nH]4)C3)CC2)nn1 (single isomer, unassigned) [Compound 209b] = 5.00 to 6.00
• O=c1[nH]c(CC2CCCN(C3CCC(F)(F)CC3)C2)nc2ccccc12 (single isomer, unassigned) [Compound 11a] = < 5.00
• CCc1ccc(C2CCN(C3CCN(c4ccc(C(=O)NCCF)nc4)CC3)C2)[nH]c1=O (single isomer, unassigned) [Compound 165a] = 6.00 to 7.00
• CNC(=O)c1ccc(N2CCC(N3CCC(c4cc5ccc(F)cc5c(=O)[nH]4)C3)CC2)c(Cl)n1 (racemic) [Compound 175rac] = 6.00 to 7.00
• CNC(=O)c1ccc(N2CCC(N3CCCC(c4cc5ccccc5c(=O)[nH]4)C3)CC2)cn1 (single isomer, unassigned) [Compound 100b] = 5.00 to 6.00
• CNC(=O)c1ccc(N2CCC(N3CCCC(c4nc5ccccc5c(=O)[nH]4)C3)CC2)c(F)n1 (racemic) [Compound 103rac] = 5.00 to 6.00
• N#Cc1ccc(N2CCC(N3CCCC(c4nc5ccccc5c(=O)[nH]4)C3)CC2)cn1 (single isomer, unassigned) [Compound 70a] = 5.00 to 6.00
